Experiment: qHTS for differential inhibitors of proliferation of Plasmodium falciparum line D10 (AID 1877);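 also: parasites grown with compound for 72 h before DNA staining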
Conditions: series mostly up to 28.7 µM
Records with an inconclusive call do not appear. Calls of active or inactive are those of the source. Calls follow the shape of the dose curve; as a rule, active = well fitted curve in the direction sought with a large enough effect; inconclusive = small, poorly fitted or top-dose-only effect, or another doubt; inactive = no such curve, though single readings can be large or run the other way.
Your answer must be one of the following: active, inactive

Exam item: For this compound, state the assay outcome: `COc1ccc(-n2nc(C(F)(F)F)cc2-c2ccc(Cl)cc2)cc1`
Marked response: active

Exam item: For this compound, state the assay outcome: `CN1CCN(c2ccc3ccccc3n2)CC1`
Marked response: inactive

Exam item: For this compound, state the assay outcome: `COc1ccc2[nH]cc(CCN(C)C)c2c1`
Marked response: inactive

Exam item: For this compound, state the assay outcome: `COc1ccc(CCN)cc1O`
Marked response: inactive

Exam item: For this compound, state the assay outcome: C[N+]1(C)CCc2cc3c(cc2C1C1OC(=O)c2c1ccc1c2OCO1)OCO3 (stereo not given)
Marked response: inactive

Exam item: For this compound, state the assay outcome: `CC(=O)[C@H]1CC[C@H]2[C@@H]3CCC4=CC(=O)CC[C@]4(C)[C@H]3CC[C@]12C`
Marked response: active

Exam item: For this compound, state the assay outcome: `CNCC[C@H](Oc1ccc(C(F)(F)F)cc1)c1ccccc1`
Marked response: active

Exam item: For this compound, state the assay outcome: `N[C@H](CCCCCP(=O)(O)O)C(=O)O`
Marked response: inactive

Exam item: For this compound, state the assay outcome: `N[C@@H](Cn1cc(I)c(=O)[nH]c1=O)C(=O)O`
Marked response: inactive

Exam item: For this compound, state the assay outcome: `N#C/C(=C\c1ccc(O)c(O)c1)C(=O)NCCCNC(=O)/C(C#N)=C/c1ccc(O)c(O)c1`
Marked response: active
